protocolSummary: Photophysical properties (fluorescence spectroscopy, quantum yield)
Format: physicochemical
protocolConditions: 5% FBS, 1 μmol/L
measurementLabel: emmax, maximum emission wavelength (nm)

Notebook: CCCCCN1/C(=C/C=C2\CCCC(/C=C/C3=[N+](CCCCC)c4ccc5ccccc5c4C3(C)C)=C2Cl)C(C)(C)c2c1ccc1ccccc21 , emmax, maximum emission wavelength read as 847

Notebook: CN1/C(=C/C=C2\CCCC(/C=C/C3=[N+](C)c4ccc5ccccc5c4C3(C)C)=C2Cl)C(C)(C)c2c1ccc1ccccc21 , emmax, maximum emission wavelength read as 846

Notebook: CCCCN1/C(=C/C=C2\CCCC(/C=C/C3=[N+](CCCC)c4ccc5ccccc5c4C3(C)C)=C2Cl)C(C)(C)c2c1ccc1ccccc21 , emmax, maximum emission wavelength read as 849

Notebook: CCCCCCN1/C(=C/C=C2\CCCC(/C=C/C3=[N+](CCCCCC)c4ccc5ccccc5c4C3(C)C)=C2Cl)C(C)(C)c2c1ccc1ccccc21 , emmax, maximum emission wavelength read as 841

Notebook: CCN1/C(=C/C=C2\CCCC(/C=C/C3=[N+](CC)c4ccc5ccccc5c4C3(C)C)=C2Cl)C(C)(C)c2c1ccc1ccccc21 , emmax, maximum emission wavelength read as 847

Notebook: CCCN1/C(=C/C=C2\CCCC(/C=C/C3=[N+](CCC)c4ccc5ccccc5c4C3(C)C)=C2Cl)C(C)(C)c2c1ccc1ccccc21 , emmax, maximum emission wavelength read as 843

---

assayedTarget: UniProt:P02769
Sequence (P02769 25-607): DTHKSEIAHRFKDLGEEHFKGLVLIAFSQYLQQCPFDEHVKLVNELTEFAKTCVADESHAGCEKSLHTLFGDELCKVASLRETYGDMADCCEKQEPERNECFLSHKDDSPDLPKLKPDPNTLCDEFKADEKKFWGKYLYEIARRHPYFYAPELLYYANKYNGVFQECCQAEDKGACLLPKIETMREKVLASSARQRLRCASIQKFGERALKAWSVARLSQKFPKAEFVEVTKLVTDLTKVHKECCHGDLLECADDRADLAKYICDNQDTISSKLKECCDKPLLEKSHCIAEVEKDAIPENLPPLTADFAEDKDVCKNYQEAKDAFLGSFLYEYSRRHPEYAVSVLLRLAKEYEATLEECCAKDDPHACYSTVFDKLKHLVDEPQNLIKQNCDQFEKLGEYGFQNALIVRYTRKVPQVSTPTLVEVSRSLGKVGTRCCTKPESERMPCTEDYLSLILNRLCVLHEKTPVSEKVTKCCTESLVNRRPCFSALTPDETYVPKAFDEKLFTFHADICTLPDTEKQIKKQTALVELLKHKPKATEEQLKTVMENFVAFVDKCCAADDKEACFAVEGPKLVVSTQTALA
protocolSummary: Association constants of IC7-1 derivatives to albumin (fluorimetric titration)
Assay type: binding, bovine
protocolConditions: dye 1 µM, BSA 0-1.0 µM, 30 min; read-out: Ka, association constant of dye-albumin complex (converted)
measurementLabel: Kd (nM)

Form: item CCN1/C(=C/C=C2\CCCC(/C=C/C3=[N+](CC)c4ccc5ccccc5c4C3(C)C)=C2Cl)C(C)(C)c2c1ccc1ccccc21 ; test system UniProt:P02769; Kd: 556

Form: item CCCCCCN1/C(=C/C=C2\CCCC(/C=C/C3=[N+](CCCCCC)c4ccc5ccccc5c4C3(C)C)=C2Cl)C(C)(C)c2c1ccc1ccccc21 ; test system UniProt:P02769; Kd: 833

Form: item CN1/C(=C/C=C2\CCCC(/C=C/C3=[N+](C)c4ccc5ccccc5c4C3(C)C)=C2Cl)C(C)(C)c2c1ccc1ccccc21 ; test system UniProt:P02769; Kd: 769

Form: item CCCCN1/C(=C/C=C2\CCCC(/C=C/C3=[N+](CCCC)c4ccc5ccccc5c4C3(C)C)=C2Cl)C(C)(C)c2c1ccc1ccccc21 ; test system UniProt:P02769; Kd: 476

P. CCCCCN1/C(=C/C=C2\CCCC(/C=C/C3=[N+](CCCCC)c4ccc5ccccc5c4C3(C)C)=C2Cl)C(C)(C)c2c1ccc1ccccc21
Q. CCCN1/C(=C/C=C2\CCCC(/C=C/C3=[N+](CCC)c4ccc5ccccc5c4C3(C)C)=C2Cl)C(C)(C)c2c1ccc1ccccc21
Exercise: When P and Q are compared, which has the higher number for Kd? Choose, then provide that item's label.
Solution: P
(P: 625 nM, Q: 417 nM)

---

protocolSummary: Photophysical properties (fluorescence spectroscopy, quantum yield)
Assay type: physicochemical
protocolConditions: CHCl3, 1 μmol/L
measurementLabel: emmax, maximum emission wavelength (nm)

Notebook: CCN1/C(=C/C=C2\CCCC(/C=C/C3=[N+](CC)c4ccc5ccccc5c4C3(C)C)=C2Cl)C(C)(C)c2c1ccc1ccccc21 , emmax, maximum emission wavelength read as 842

Notebook: CN1/C(=C/C=C2\CCCC(/C=C/C3=[N+](C)c4ccc5ccccc5c4C3(C)C)=C2Cl)C(C)(C)c2c1ccc1ccccc21 , emmax, maximum emission wavelength read as 841

Notebook: CCCCCCN1/C(=C/C=C2\CCCC(/C=C/C3=[N+](CCCCCC)c4ccc5ccccc5c4C3(C)C)=C2Cl)C(C)(C)c2c1ccc1ccccc21 , emmax, maximum emission wavelength read as 845

Notebook: CCCCN1/C(=C/C=C2\CCCC(/C=C/C3=[N+](CCCC)c4ccc5ccccc5c4C3(C)C)=C2Cl)C(C)(C)c2c1ccc1ccccc21 , emmax, maximum emission wavelength read as 845

Notebook: CCCN1/C(=C/C=C2\CCCC(/C=C/C3=[N+](CCC)c4ccc5ccccc5c4C3(C)C)=C2Cl)C(C)(C)c2c1ccc1ccccc21 , emmax, maximum emission wavelength read as 845

Notebook: CCCCCN1/C(=C/C=C2\CCCC(/C=C/C3=[N+](CCCCC)c4ccc5ccccc5c4C3(C)C)=C2Cl)C(C)(C)c2c1ccc1ccccc21 , emmax, maximum emission wavelength read as 845

---

protocolSummary: Photophysical properties (fluorescence spectroscopy, quantum yield)
Type: physicochemical
protocolConditions: 5% FBS
measurementLabel: ε, extinction coefficient (mol/L/cm)

Example cases with answers are listed next.
Notebook: CCCCN1/C(=C/C=C2\CCCC(/C=C/C3=[N+](CCCC)c4ccc5ccccc5c4C3(C)C)=C2Cl)C(C)(C)c2c1ccc1ccccc21 [IC7-1-Bu] , ε, extinction coefficient read as 130000

Notebook: CCCCCN1/C(=C/C=C2\CCCC(/C=C/C3=[N+](CCCCC)c4ccc5ccccc5c4C3(C)C)=C2Cl)C(C)(C)c2c1ccc1ccccc21 [IC7-1-Pe] , ε, extinction coefficient read as 90000

Notebook: CCCN1/C(=C/C=C2\CCCC(/C=C/C3=[N+](CCC)c4ccc5ccccc5c4C3(C)C)=C2Cl)C(C)(C)c2c1ccc1ccccc21 [IC7-1-Pr] , ε, extinction coefficient read as 130000

Notebook: CN1/C(=C/C=C2\CCCC(/C=C/C3=[N+](C)c4ccc5ccccc5c4C3(C)C)=C2Cl)C(C)(C)c2c1ccc1ccccc21 [IC7-1-Me] , ε, extinction coefficient read as 120000

I. CCN1/C(=C/C=C2\CCCC(/C=C/C3=[N+](CC)c4ccc5ccccc5c4C3(C)C)=C2Cl)C(C)(C)c2c1ccc1ccccc21 [IC7-1-Et]
II. CCCCCCN1/C(=C/C=C2\CCCC(/C=C/C3=[N+](CCCCCC)c4ccc5ccccc5c4C3(C)C)=C2Cl)C(C)(C)c2c1ccc1ccccc21 [IC7-1-He]
Exercise: // task: argmin of ε, extinction coefficient over [ I , II ] Choose, then provide that item's label.
Solution: II
